# measured_target: Cytochrome P450 2D6 (Homo sapiens)
# assay_method_text: Cytochrome panel assay with activity outcomes; on activity, negative = inhibition: on the % scale 0 is the no-effect control and ±100 the full control effect
# run_parameters: recombinant CYP, pro-luciferin dealkylation, luminescence, p450-cyp2d6; series mostly up to 57.1 µM
Screen size: about 16,000 compounds; about 2,600 (16%) were called active. Roughly 20% stayed inconclusive and do not appear here. Not all results are given here.
parameter_measured: activity, negative = inhibition

Example cases with answers are listed next.
NS(=O)(=O)c1nc(S(=O)(=O)O)c2[nH]cnc2n1	10.8% [at 11.4 µM] (inactive)
CN(C)Cc1cc(Cl)c(O)c(CN(C)C)c1	-14% [at 11.4 µM] (inactive)
Oc1ccc2ccccc2c1/C=C\c1ccc2c(Br)cc(Br)c(O)c2n1	-2.53% [at 11.4 µM] (inactive)

The value of activity, negative = inhibition measured for the compound O=C1C=C(Nc2nc(C(=O)O)cc(=O)[nH]2)c2ccccc2C1=O turned out to be -6.72% [at 11.4 µM] (inactive)

The value of activity, negative = inhibition measured for the compound COc1ccc(C=Nc2c(O)ccc3ccccc23)cc1OC turned out to be -7.34% [at 11.4 µM] (inactive)

The value of activity, negative = inhibition measured for the compound Oc1ccc(Cl)cc1Cc1cc(Cl)cc(Cc2cc(Cl)ccc2O)c1O turned out to be -10.5% [at 11.4 µM] (inactive)

---

# measured_target: Cytochrome P450 2D6 (Homo sapiens) (UniProt P10635)
# Sequence (P10635 whole entry, looked up): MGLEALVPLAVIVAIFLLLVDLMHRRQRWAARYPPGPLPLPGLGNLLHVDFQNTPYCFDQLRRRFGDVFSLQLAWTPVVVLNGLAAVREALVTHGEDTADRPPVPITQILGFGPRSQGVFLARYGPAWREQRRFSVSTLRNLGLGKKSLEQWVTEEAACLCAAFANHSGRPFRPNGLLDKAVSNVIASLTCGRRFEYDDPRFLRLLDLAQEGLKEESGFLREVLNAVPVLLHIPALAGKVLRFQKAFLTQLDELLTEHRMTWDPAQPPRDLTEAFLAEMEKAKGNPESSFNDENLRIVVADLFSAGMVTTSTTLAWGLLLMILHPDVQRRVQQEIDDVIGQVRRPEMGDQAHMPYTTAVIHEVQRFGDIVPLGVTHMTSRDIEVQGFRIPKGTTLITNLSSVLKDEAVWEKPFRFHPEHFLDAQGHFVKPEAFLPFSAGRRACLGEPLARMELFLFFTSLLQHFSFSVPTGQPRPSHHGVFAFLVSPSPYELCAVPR
# assay_method_text: Cytochrome panel assay with activity outcomes
# run_parameters: recombinant CYP, pro-luciferin dealkylation, luminescence, p450-cyp2d6; series mostly up to 57.1 µM
The whole screen tested about 16,000 compounds, of which about 2,600 (16%) were called active. Roughly 20% stayed inconclusive and do not appear here. The call rests on the fitted dose curve; in most records, active means well fitted curve in the direction sought with a large enough effect; inconclusive means small, poorly fitted or top-dose-only effect, or effect the other way; inactive means no such curve, though single readings can be large or run the other way. Not all results are given here.
Your reply should match one of these outcome classes. active, inactive

Below are worked cases with known answers.
CCOc1ccc(NC(=O)CSc2nc(C)c3c(c2C#N)CCCC3)cc1	inactive
O=C(Nc1cccc(F)c1)N1CC[C@@]2(CCCNC2)C1	inactive
c1ccc(C(c2ccccc2)N2CC[C@@]3(CCCNC3)C2)cc1	active
COc1ccc(C(=O)N2CCC3(CCN(Cc4ccncc4)CC3)CC2)cc1	inactive
COc1ccc(NC(=O)CSc2nc(-c3ccc(C)cc3)cc(C(F)(F)F)c2C#N)cc1	inactive
c1ccc(C(c2ccccc2)N2CC3(CCNCC3)C2)cc1	active
O=C(Nc1ccccc1)N1CCCC2(CCNCC2)C1	inactive
COc1ccccc1CN1CCC2(CC1)CCN(C(=O)c1c(C)noc1C)CC2	active

Called result for CC(=O)N1CCC2(CC1)CCN(c1ccc(-c3ccccc3)cc1)CC2
inactive

Called result for CCC(=O)Nc1ccc(/C(C)=N\NS(=O)(=O)c2ccc(C)cc2)cc1
inactive

Called result for N#Cc1cccc(NC(=O)N2CC[C@@]3(CCCNC3)C2)c1
inactive

---

# measured_target: Cytochrome P450 2D6 (Homo sapiens) (UniProt P10635)
# assay_method_text: Cytochrome panel assay with activity outcomes; on activity, negative = inhibition: on the % scale 0 is the no-effect control and ±100 the full control effect
# run_parameters: recombinant CYP, pro-luciferin dealkylation, luminescence, p450-cyp2d6; series mostly up to 57.1 µM
In all, about 16,000 compounds went through this assay and about 2,600 (16%) were called active. About 20% were inconclusive and are not listed. Only a sample is shown.
Reported activity, negative = inhibition is given for each of the following compounds.

COc1cccc([C@@H]2Oc3ccc(OC)cc3/C(=N/OC[C@@H](O)COCc3ccco3)[C@@H]2O)c1	5.07% [at 11.4 µM] (inactive)

# activity, negative = inhibition measured on Cytochrome P450 2D6 (Homo sapiens) (UniProt P10635) for item COC(=O)C/C=C\[C@@H](C)[C@@H](/C=N\O[C@@H](C)c1cn([C@H](CO)Cc2ccccc2)nn1)NS(=O)(=O)c1ccc(C)cc1 = -17.6% [at 11.4 µM] (inactive)

# activity, negative = inhibition measured on Cytochrome P450 2D6 (Homo sapiens) (UniProt P10635) for item COc1ccc(Br)c2c1C[C@H](C(=O)O)CC2 = 7.4% [at 11.4 µM] (inactive)

# activity, negative = inhibition measured on Cytochrome P450 2D6 (Homo sapiens) (UniProt P10635) for item C/C(CCN1CCc2nc(-c3ccccc3)c(-c3ccccc3)cc2C1)=N\O[C@@H](C)c1cc(-c2c(C)cc(C)cc2C)no1 = 8.64% [at 11.4 µM] (inactive)

# activity, negative = inhibition measured on Cytochrome P450 2D6 (Homo sapiens) (UniProt P10635) for item CCCNC(=O)OC[C@@H]1O[C@H](CCO/N=C\C[C@H]2C=C[C@H](OC(C)=O)[C@@H](COC(C)=O)O2)C=C[C@@H]1Oc1ccc(OC)cc1 = -15.6% [at 11.4 µM] (inactive)

# activity, negative = inhibition measured on Cytochrome P450 2D6 (Homo sapiens) (UniProt P10635) for item COc1ccc([C@@H](Nc2ccccn2)c2cc(C(C)(C)C)cc(C(C)(C)C)c2O)cc1 = -16.7% [at 11.4 µM] (inactive)

# activity, negative = inhibition measured on Cytochrome P450 2D6 (Homo sapiens) (UniProt P10635) for item C[C@@]12CC(=O)[C@@H]3[C@@H](CCC4=CC(=O)CC[C@]43C)[C@@H]1CC=C2CC(=O)O = 17.8% [at 11.4 µM] (inactive)

# activity, negative = inhibition measured on Cytochrome P450 2D6 (Homo sapiens) (UniProt P10635) for item Nc1n[nH]c2ccccc12 = -3.15% [at 11.4 µM] (inactive)
